# PROCEDURE_SUMMARY: folding stability dG unfold from chymotrypsin proteolysis; higher = more stable
Form field: folding stability dG unfold (one value per entry).
Express it in kcal/mol; write the number only.

| CHAIN | RESULT |
| --- | --- |
| SMIKPGEKIKKIKLKLENGEEVEATLVKNEDGSLVLFIKVDGEVYVFTFNPDGEIKIEKVSKEEAEKLLKSA [r9_1144_TrROS_Hall] | 3.79 |

Which measured folding stability dG unfold value corresponds to SAGGSAGGSAMPKVTIKITVYNAETGELRTVTLTLPEEDMSLEEIAAALPPGWRIVKVELLSAGGSAGGSAG [r3_80_TrROS_Hall] ? 4.65

Which measured folding stability dG unfold value corresponds to SAGGSAGIKAVLNLGDKPVLVLIEPLPDGSFPVIAIFADDGSKVEKVIPASDIGELLSLDPDKLTFSAGGSA [r15_629_TrMRF] ? 0.0558

* * *

# PROCEDURE_SUMMARY: folding stability dG unfold (combined trypsin and chymotrypsin); higher = more stable
Recorded folding stability dG unfold determines the label; the label ranges are one: < -0.02 kcal/mol; two: ≥ -0.02 kcal/mol and < 2 kcal/mol; three: ≥ 2 kcal/mol

Record excerpt, results attached:
| CHAIN | CLASS_LABEL |
| --- | --- |
| SAGGSAEIEIVIVVPEGASEEQVKALAKELKEELEKLLKVKDKDGKEKEVKIKKIKITVIVLPKEESAGGSA [r15_717_TrROS_Hall] | three |
| SAGGGWKPIGKEEITLPFGIKVTVDIWTWPDGMIMIMIEIEIPVPPPKPPVPPMSPEDMKDMNEDNGSAGGS [r16_6_TrROS] | three |
| SAGGLDSAPPVEVKVEVEEEKTKDPNSDSEVTKYKITVTTTVGGTPIVTEEESIVYKKPDGTIIVEKKSAGG [r19_260_JUSTAS] | one |
| SAGGKTVPIMFPFDSPDQIEEIIEELAKPGFDDVKPERIEPEPPPDGNYYFPVRIEVDPKNGKIEITFSAGG [r13_174_TrROS] | one |
| SMTYSYGVDVSEDPNSDKTTATITTTSSDGSSSLSPEEVAAELAAEAKAAGYTVDVELRPGSVTITVTAPSA [r9_510_JUSTAS] | two |

For this sequence, which bin applies? SAGGKPGEPVKIKMRGPDGQPMTFPFYAPEPVKIKMNNPGEEHEHTIPPGEPLTFPLPPGDIEVEPVSAGGS [r16_456_TrROS] one

For this sequence, which bin applies? SAGGSAGGSAGGSEEEIKKLAAEGGSFTATIPVVTPDGKPVEKTVTVEVKTDPKTGKLVSAGGSAGGSAGGS [r10_346_JUSTAS] two

For this sequence, which bin applies? SAGGSAGGMTPEEIRDALAAKLRAADPDVEVRPVRQEGDEVVVVVTRPATGERREVRVPADVPLSAGGSAGG [r6_446_JUSTAS] one

* * *

# PROCEDURE_SUMMARY: folding stability dG unfold (combined trypsin and chymotrypsin); higher = more stable
Form field: folding stability dG unfold (one value per entry).

Which measured folding stability dG unfold value corresponds to SAMEIVIEFESPEEAEKAIKEYVEKKGLKAVEIKMEFEPKWVEEKTPTGVKVTKEKYVAKVTVVTSKELSAG [r14_773_JUSTAS] ? 1.28 kcal/mol

Which measured folding stability dG unfold value corresponds to SAGGSAGGSAGVIEVPIEELENLPDDVKVVPTENTAVIYNEKNPIVVPKNEPVLIAPSDKSAGGSAGGSAGG [r17_91_TrMRF] ? < -1 kcal/mol

Which measured folding stability dG unfold value corresponds to SAGGSAKLTIELVISDMSPEDAEIAAENIRIELIKKGIPEEEIENVDIKVIVAPVYLDEDNNLILGSAGGSA [r15_684_TrMRF] ? 0.694 kcal/mol

* * *

# PROCEDURE_SUMMARY: folding stability dG unfold from trypsin proteolysis; higher = more stable
REPORTED_PROPERTY: folding stability dG unfold (kcal/mol)
Express it in kcal/mol; write the number only.

Some solved cases for reference:
| CHAIN | REPORTED_PROPERTY | U | RESULT |
| --- | --- | --- | --- |
| SAGMAEEAREAARLFASELAPRFGVEAEIPEVRVEFDPETGEVHVHLEVLFRLPEPRTVRRDFVLVLPLSAG [r5_381_TrMRF] | folding stability dG unfold | kcal/mol | 1.3 |
| SAGGSAGGSAGGGMTVLSFTMPKEEVEKYFEEKGLDATEMTISPGPGDTYSVTVLDPGSSAGGSAGGSAGGS [r10_999_JUSTAS] | folding stability dG unfold | kcal/mol | 0.33 |
| SASISVASPEEAEKIAKELKEKYGAKSVKIEPLPEPLVKVTIEFEVPLENGKTATRKIVLLFSSDGKEESAG [r14_420_TrMRF] | folding stability dG unfold | kcal/mol | 1.87 |
| SALTLEELEKRYPELPSELLEKIKEEAEKVPKDRTLTFLLTAPDGRRVRITVTKPDTVTVTVLPPGVPEASA [r9_1024_JUSTAS] | folding stability dG unfold | kcal/mol | 4.13 |
| SAWVIPFEVRLPGSPEQARRQVEEWADNIANRYQQNGFRVVDIKIDEIEPDNVRVRLTIQIVPPGQEIPSAG [r14_973_TrROS] | folding stability dG unfold | kcal/mol | 2.74 |

Which measured folding stability dG unfold value corresponds to SAGGSAGGSAGGGSVVTTETSVSPNGVVTTTTTTTFLDPDGNPLGTTTTTTAHAAPPTTSAGGSAGGSAGGS [r10_403_JUSTAS] ? 2.58

Which measured folding stability dG unfold value corresponds to SMLTSPDGTSVTIETKVSPSAGPLPPFFEQTYDPSKDTITVNAPASPEEVAAIRAAPGLETLAVTFTPAESA [r9_827_JUSTAS] ? -0.874

* * *

Form field: folding stability dG unfold (one value per entry).
# PROCEDURE_SUMMARY: folding stability dG unfold (combined trypsin and chymotrypsin); higher = more stable
Express it in kJ/mol; write the number only.

Some solved cases for reference:
| CHAIN | folding stability dG unfold, kJ/mol |
| --- | --- |
| GSVTIELVVPKGVDIPLALLAGIASTGKGKVTARISNPLSGKEIEVTFPGGGLGEAGVTEGINVVRLTVYGS [r1_238_TrMRF] | 5.04 |
| SAGGSAMEIEVEKNEDGTVTIRFRDKETGEEIEIEIEVEPGMTEEEVREKAEELAEELKKKGIEIESAGGSA [r15_1022_TrROS_Hall] | 12.1 |

Would you kindly look at the next entry?
Which measured folding stability dG unfold value corresponds to SAGGSAGGSAGTITTPTAEFTVTLDPNGTYTVTYQNTTTTVPVGAPFTLPGGEPLTVVPASAGGSAGGSAGG [r11_147_JUSTAS] ? 2.52

* * *

# PROCEDURE_SUMMARY: folding stability dG unfold from chymotrypsin proteolysis; higher = more stable
REPORTED_PROPERTY: folding stability dG unfold (kcal/mol)
Express it in kcal/mol; write the number only.

Some solved cases for reference:
| CHAIN | RESULT |
| --- | --- |
| SMYRIRVKIKIKNPKTGKVIELPELEGMSLEEVLEIAKELKEKFPGAEVEVEIVEVEPLPPLTEEQLKKLSA [r9_421_TrROS_Hall] | 2.33 |
| SAGGSAGGSAGGGMPVEMKITLYDPDGTKIGEYTLKVKSEEELKKAVEEKGYNYEVDKESAGGSAGGSAGGS [r10_958_JUSTAS] | 0.17 |
| SAGGTIKITIKAENLTEEEKEELAKKIADELKKKGYKVKKVEVTVEKEKEKTVTITLENGKKIEVKLSAGGS [r8_485_TrROS_Hall] | 2.56 |

Would you kindly look at the next entry?
Which measured folding stability dG unfold value corresponds to SAGGSAGGPPPYYMVEIEIERRNPKNGKKQKFPVTVIMPPKEAEKIKDELEEWGYEIKVDVHPISAGGSAGG [r6_97_TrROS] ? 0.393

* * *

# PROCEDURE_SUMMARY: folding stability dG unfold from trypsin proteolysis; higher = more stable
REPORTED_PROPERTY: folding stability dG unfold (kcal/mol)
Express it in kcal/mol; write the number only.

| CHAIN | RESULT |
| --- | --- |
| SAGGSAGGSPGNYIIQIEIKFPGRKHTWHVDSPEEALEQLKNDLEKQHPNAPITDVEIEVFPLSAGGSAGGS [r12_429_TrROS] | 0.791 |

Which measured folding stability dG unfold value corresponds to SAGGKATVTITEVKVETETVTLKYDPETGELVEKTETVTRVEVKTITIEADKNPELAEELLKKLGIESAGGS [r16_467_TrROS_Hall] ? 1.69

Which measured folding stability dG unfold value corresponds to SAGGSAGGSAGGSEKPPIKLKIKVYDPETNELVSEVEVELEPGQSLEELLKKFDVVEIESAGGSAGGSAGGS [r4_187_TrROS_Hall] ? 1.71

Which measured folding stability dG unfold value corresponds to SAGGAGPEKAEELARALAAELEEEGREWRFKITYSAEPEILSIDVYPLSEPLVDDAKPGYRTLYYDAPSAGG [r13_693_TrMRF] ? 0.659

Which measured folding stability dG unfold value corresponds to SAGGSAGGMVVGILTITDPATGSSETLVIPMPSEEEAVERAKELAEELEAKKGKIVKVEIRPRPSAGGSAGG [r6_787_JUSTAS] ? 1.39

Which measured folding stability dG unfold value corresponds to SAGGMMKIKITFADGTTKEIELPEDVTEVTITYDEKTGKVTITVRLKNGETKTITIPADKITKIEIESAGGS [r16_658_TrROS_Hall] ? 5.39

Which measured folding stability dG unfold value corresponds to SAGGSAKPEPIKIEIGPGGNRFKATFPNGDEADVDVVKDGDKTYLLITVTSPDGKPRPFKIPLEKLSAGGSA [r15_941_TrMRF] ? 1.76
